Listing of entries alongside the reported TGI.
Tested on: NCI-H226 lung
Assay: NCI tumour cell line growth inhibition, 48 h

Molecule	Unit Annotation	Value Qualifier	TGI
OC(C#Cc1ccccc1)(c1ccccc1)c1ccccc1	µM	=	87.3
Nc1ncnc2oc(C3OC(COC(=O)c4ccccc4)C(OC(=O)c4ccccc4)C3OC(=O)c3ccccc3)nc12 (centres undefined)	µM	>	100
Oc1ccc(C(c2ccc(O)cc2)c2ccc(Br)cn2)cc1	µM	=	0.651
CCOC(=O)CNC(=O)C(CSC(=O)N(O)c1ccc(Cl)cc1)NC(=O)CCC(N)C(=O)OCC (centres undefined)	µM	>	50
N#Cc1nc(-c2ccco2)oc1N	µM	>	10
[O-]c1c2cc(-[n+]3c(-c4ccccc4)cc(-c4ccccc4)cc3-c3ccccc3)cc1COCCOCCOCCOCCOC2	µM	>	100
Cc1ccc(NC(=O)CC2C(=O)Nc3ccccc3S2(=O)=O)c(C)c1 (centres undefined)	µM	=	35.9
C[C@]12CC[C@@H]3c4cc(OC(F)F)c(OS(N)(=O)=O)cc4CC[C@H]3[C@@H]1CC[C@@H]2O	µM	=	21.8
COC(=O)[C@H]1CCCN1C(=O)[C@H]1CCCN1C(=O)[C@@H](Cc1c[nH]c2ccccc12)NC(=S)Nc1cc(C(F)(F)F)cc(C(F)(F)F)c1	µM	=	11.7
Cc1ccc2nc(N/N=C/c3sccc3C)cc(C)c2c1	µM	>	100
c1cnc2c(c1)ccc1cccnc12	µM	>	23.5
CC1=NN(c2nc(N)nc(/C(C#N)=C\c3csc([N+](=O)[O-])c3)n2)C(C)(C)C1	µM	=	76
COc1cc2c(cc1OCCCCN1CCN(C(=S)SCCC(C#N)(c3ccccc3)c3ccccc3)CC1)N=C[C@@H]1CCCN1C2=O	µM	=	3.29
NS(=O)(=O)c1nnc(NS(=O)(=O)C(F)(F)F)s1	µM	>	100
C[C@]12C[C@@H](OC(=O)[C@]1(C)O)[C@@H]([C@]1(O)CC[C@H]3[C@@H]4C[C@H]5O[C@]56C[C@H]5O[C@H]5C(=O)[C@]6(C)[C@H]4CC[C@@]31C)C2	µM	>	50
COc1ccc(OC)c(CNc2ccc(C(=O)O)cc2)c1	µM	>	100
Oc1c(I)cc(I)c2cccnc12	µM	=	29.2
COc1ccc(CCC2c3cc(OC)c(OC)cc3CCN2C)cc1OC (centres undefined)	µM	>	100
O=c1c2cc(S(=O)(=O)O)ccc2nc(COc2ccc(Oc3ccc(Cl)cc3Cl)cc2)n1-c1ccc(Oc2ccc(Cl)cc2)cc1Cl	µM	=	48.9

====

System: UACC-62 melanoma
Assay: NCI tumour cell line growth inhibition, 48 h; in the data active = GI50 below about 0.43 µM; inactive = the rest
Labels: active, inactive

Molecule	Class Name
C/C(=C\c1cnc(C)s1)[C@@H]1C[C@@H]2O[C@@H]2CCC[C@H](C)[C@H](O)[C@@H](C)C(=O)C(C)(C)[C@@H](O)CC(=O)O1	active
CCCCCO/N=C\c1c2c(O)c3c(O)c(C)c4c(c3c1O)C(=O)C(C)(O/C=C\C(OC)C(C)C(OC(C)=O)C(C)C(O)C(C)C(O)C(C)/C=C\C=C(\C)C(=O)N2)O4 (centres undefined)	inactive
Cn1cc(C2=C(c3cccc(OC[C@@H](O)CO)c3)C(=O)NC2=O)c2ccccc21	inactive
CSc1nc2sc3c(c2c(=O)n1-c1ccc(C(C)C)cc1)CCC(=O)C3	inactive

====

Tested on: OVCAR-5 ovarian
Assay: NCI tumour cell line growth inhibition, 48 h
Where a SMILES comes first, the peptide text is derived from it. The star is where a group is joined. Palmitoyl = CCCCCCCCCCCCCCCC(=O)*
Value Kind: TGI

Molecule	Tgt	Assay Result
CC1(C)CC(=O)C2=C(C1)OC(N)=C(c1nc(-c3ccccc3)cs1)C2c1ccc(Br)cc1 (configuration not stated)	OVCAR-5 ovarian	> 150 µg/mL
O=c1c2cc(S(=O)(=O)O)ccc2nc(COc2ccc(Oc3ccc(Cl)cc3Cl)cc2)n1-c1ccc(Oc2ccc(Cl)cc2)cc1Cl	OVCAR-5 ovarian	55.1 µM
Nc1nc(O)c2ncn([C@H]3CC[C@@H](CO)O3)c2n1	OVCAR-5 ovarian	> 100 µM
CC1=C(CC(=O)c2cccc([N+](=O)[O-])c2)C(=O)c2ccccc2C1=O	OVCAR-5 ovarian	20.5 µM
COc1ccc(/C=N/n2c(C)n[nH]c2=O)c(OC)c1	OVCAR-5 ovarian	> 100 µM
CC(C)C(C(=O)O)N1C(=O)c2ccccc2C1=O (configuration not stated)	OVCAR-5 ovarian	> 100 µM
NC(=O)C(=O)C1CCC2=C(Sc3ccccc3N2)C1=O (configuration not stated)	OVCAR-5 ovarian	> 100 µM
N#Cc1nc(-c2ccco2)oc1N	OVCAR-5 ovarian	> 10 µM
O=C1C(Cl)C2(CC(/C=C/c3ccccc3)=NN2c2cccc(S(=O)(=O)O)c2)N1c1nc2ccccc2s1 (configuration not stated)	OVCAR-5 ovarian	35.5 µM
CCCCCCNC(=O)Oc1ccc(/C(=C(\C)c2ccc(Cl)cc2)c2ccc(OCCN3CCCCC3)cc2)cc1	OVCAR-5 ovarian	16 µM
Cc1cn(CCCCC2=NCCCN2)c(=O)[nH]c1=O	OVCAR-5 ovarian	> 42.5 µM
CC1(C)CNCC(C)(OCc2ccccc2)C(=O)NC(C)(C)CNCC(C)(OCc2ccccc2)C(=O)N1 (configuration not stated)	OVCAR-5 ovarian	> 10 µM
COC1C(O)C(CO)OC(OC2C(O)COC(OC3C(C)OC(OC4C(O[C@H]5CC[C@@]6(C)C(CC=C7[C@H]6CCC68C(=O)O[C@@](C)(CCCC(C)C)[C@H]6[C@@H](OC(C)=O)C[C@@]78C)C5(C)C)OCC(OS(=O)(=O)O)C4O)C(OC4OCC(O)C(O)C4O)C3O)C2O)C1O (some centres not stated)	OVCAR-5 ovarian	0.564 µM
Cc1ccc(NC(=O)CC2C(=O)Nc3ccccc3S2(=O)=O)c(C)c1 (configuration not stated)	OVCAR-5 ovarian	46.9 µM
Nc1c([N+](=O)[O-])nc(Cl)c2nncn12	OVCAR-5 ovarian	> 100 µM
C/C(=C\c1cnc(C)s1)[C@@H]1C[C@@H]2O[C@@H]2CCC[C@H](C)[C@H](O)[C@@H](C)C(=O)C(C)(C)[C@@H](O)CC(=O)O1	OVCAR-5 ovarian	> 100 µM
COC(=O)[C@H]1CCCN1C(=O)[C@H]1CCCN1C(=O)[C@@H](Cc1c[nH]c2ccccc12)NC(=S)Nc1cc(C(F)(F)F)cc(C(F)(F)F)c1	OVCAR-5 ovarian	3.54 µM
CC1=C(O)C2=C(C(=O)C1=O)[C@@H](C)CC[C@@H]2[C@@H](C)C/C=C/C(C)(C)O	OVCAR-5 ovarian	> 100 µM
CC1CN=C(N(Cc2ccccc2)C(=O)Nc2ccc(Cl)c(Cl)c2)S1 (configuration not stated)	OVCAR-5 ovarian	> 100 µM
CC(=O)Oc1ccc(/C=C/C(=O)OCCCOC(=O)/C=C/c2ccc(OC(C)=O)c(OC(C)=O)c2)cc1OC(C)=O	OVCAR-5 ovarian	> 100 µM
O=C(O)Cc1cccnc1	OVCAR-5 ovarian	> 100 µM
COc1cc2c(cc1OC)-c1ncc3c(OC)c(OC)c(OC)cc3c1C2	OVCAR-5 ovarian	> 100 µM
O=C(/C=C/c1ccccc1)Oc1ccc(C(=O)/C=C/c2ccc(Cl)cc2)cc1	OVCAR-5 ovarian	> 100 µM
C/C(=C\CBr)CCC(Br)C(C)(C)Cl (configuration not stated)	OVCAR-5 ovarian	> 100 µM
Cc1cc(N(CCCNc2ccnc3cc(Cl)ccc23)Cc2ccco2)nc(N2CCN(C)CC2)n1	OVCAR-5 ovarian	21.8 µM
CCCC1CCC(=C2C(=O)CCC2=O)O1 (configuration not stated)	OVCAR-5 ovarian	> 100 µM
Oc1[nH]c2ccccc2c1N=NC(=S)Nc1ccccc1Cl	OVCAR-5 ovarian	> 100 µM
Oc1ccc2cc(Br)ccc2c1-c1c(O)ccc2ccc(Br)cc12	OVCAR-5 ovarian	30.8 µM
N#CC1=C(/N=C/c2ccccc2)Oc2c(ccc3ccccc23)C1c1ccccc1 (configuration not stated)	OVCAR-5 ovarian	> 100 µM
Cc1nc2ccc(C(F)(F)F)cc2nc1NCc1ccc(Cl)c(Cl)c1	OVCAR-5 ovarian	25.9 µM
CC(=O)C1=CN=C2C(=O)N(c3ccccc3)N(C)C12C (configuration not stated)	OVCAR-5 ovarian	> 100 µM
Cc1c(-c2ccccc2)[nH]c2cc(Cl)ccc2c1=O	OVCAR-5 ovarian	> 100 µM
CCOC(=O)c1nc2cc(C(F)(F)F)ccc2nc1Nc1ccc(OC)cc1	OVCAR-5 ovarian	> 100 µM
CCCCCCCCCCCCCCCC(=O)N1CCCC1C(=O)NCC(=O)NC(Cc1ccccc1)C(=O)NC(C)C(=O)NC(CO)C(=O)NC(Cc1ccc(O)cc1)C(=O)NC(CCCCN)C(=O)NC(CC(C)C)C(=O)NC(CCCN=C(N)N)C(=O)N1CCCC1C(=O)NCC(N)=O (configuration not stated) (Palmitoyl-PGFASYKLRPG-NH2; configuration not given here)	OVCAR-5 ovarian	38.6 µM
CCC(=O)C(CCN1CCC2(CCCc3ccccc32)CC1)(c1ccccc1)c1ccccc1	OVCAR-5 ovarian	14.7 µM
O=S(=O)(c1cccc(N=C=S)c1)c1cccc(N=C=S)c1	OVCAR-5 ovarian	> 100 µM
O=C1Cc2c([nH]c3ccc(Br)cc23)-c2cc(O)c(O)cc2N1	OVCAR-5 ovarian	> 100 µM
